TARGET_OF_ASSAY: TRP channel (TRPM8) (Mus musculus)
Construct: Full-length cDNAs for mosquito (Anopheles gambiae) odorant receptor (OR1, OR2, OR7, OR8, OR28), and fly (Drosophila melanogaster) odorant receptor (Or47a, Or83b), mouse TRP channel (TRPM8); expressed in transfected cells
Sequence (Q8R4D5 whole entry): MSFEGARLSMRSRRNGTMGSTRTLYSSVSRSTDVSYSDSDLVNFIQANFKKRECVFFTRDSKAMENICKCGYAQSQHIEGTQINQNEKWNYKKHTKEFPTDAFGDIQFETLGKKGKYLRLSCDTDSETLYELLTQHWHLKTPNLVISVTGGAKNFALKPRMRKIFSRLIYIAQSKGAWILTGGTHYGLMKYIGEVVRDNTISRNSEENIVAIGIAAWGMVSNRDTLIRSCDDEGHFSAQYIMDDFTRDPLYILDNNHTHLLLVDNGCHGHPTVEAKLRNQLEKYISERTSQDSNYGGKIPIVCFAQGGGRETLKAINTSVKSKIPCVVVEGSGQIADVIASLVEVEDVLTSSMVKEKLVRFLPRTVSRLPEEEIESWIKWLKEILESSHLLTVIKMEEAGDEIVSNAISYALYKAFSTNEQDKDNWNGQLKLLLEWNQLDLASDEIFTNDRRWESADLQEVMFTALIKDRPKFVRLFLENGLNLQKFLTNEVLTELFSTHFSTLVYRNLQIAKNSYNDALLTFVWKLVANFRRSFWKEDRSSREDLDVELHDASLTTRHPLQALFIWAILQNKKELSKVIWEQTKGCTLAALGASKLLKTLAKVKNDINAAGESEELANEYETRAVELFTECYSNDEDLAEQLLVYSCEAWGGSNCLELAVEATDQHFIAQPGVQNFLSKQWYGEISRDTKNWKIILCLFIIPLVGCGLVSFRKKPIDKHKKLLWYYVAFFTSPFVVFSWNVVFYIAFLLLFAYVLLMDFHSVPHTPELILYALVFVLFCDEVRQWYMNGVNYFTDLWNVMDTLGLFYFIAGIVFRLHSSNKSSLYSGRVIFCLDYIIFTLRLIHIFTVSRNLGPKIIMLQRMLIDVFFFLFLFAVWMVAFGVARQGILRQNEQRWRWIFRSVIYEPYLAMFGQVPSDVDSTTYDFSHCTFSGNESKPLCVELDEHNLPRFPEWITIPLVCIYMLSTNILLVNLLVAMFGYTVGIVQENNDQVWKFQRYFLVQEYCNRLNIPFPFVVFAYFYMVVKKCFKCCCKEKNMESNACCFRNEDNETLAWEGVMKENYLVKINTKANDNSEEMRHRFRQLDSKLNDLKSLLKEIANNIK
ASSAY_PROCEDURE: Ca2+-imaging of stable HEK293T cell line TRPM8
Format: cell-based
RUN_PARAMETERS: HEK-293T; compound applied at 4 μM; read-out: Percent Inhibition TRPM8
Catalogue of inhibition at 4 µM readings, one per entry.

| COMPOUND | inhibition at 4 µM |
| --- | --- |
| Cc1ccc(-c2nnc(SCCCC(=O)N3CCN(C(=O)c4cccc(F)c4)C(C)C3)n2-c2ccc(C)cc2)cc1 (centres unmarked) [RU-0071789] | < 25% |
| Fc1ccccc1/C=N/Nc1nc(N2CCCCC2)nc(N2CCOCC2)n1 [RU-0018338] | 26 to 50% |
| COc1cccc(-c2nnc(SCCCC(=O)N3CCN(C(=O)CC(C)(C)C)C(C)C3)n2-c2ccc(C)cc2)c1 (centres unmarked) [RU-0071818] | < 25% |
| CCN(CC)c1onc(-c2ccccc2)c1CN(CC1CCCO1)C(=O)c1ccc2c(c1)OCO2 (centres unmarked) [RU-0036875] | < 25% |
| C=CCN(Cc1nccn1Cc1ccccc1C)C(=O)CC(C)C [RU-0058298] | 26 to 50% |
| CCOC(=O)C1CCCN(C(=O)c2csc(CSc3nnc(-c4cccc(OC)c4)n3-c3ccc(C)cc3)n2)C1 (centres unmarked) [RU-0071628] | < 25% |
| CC(C)CN(Cc1nccn1Cc1c(F)cccc1Cl)C(=O)c1ccc(F)cc1 [RU-0048054] | < 25% |
| C=CCN(Cc1nccn1Cc1ccccc1F)C(=O)C1CCCC1 [RU-0058964] | 26 to 50% |

###

TARGET_OF_ASSAY: TRP channel (TRPM8) (Mus musculus)
Construct: Full-length cDNAs for mosquito (Anopheles gambiae) odorant receptor (OR1, OR2, OR7, OR8, OR28), and fly (Drosophila melanogaster) odorant receptor (Or47a, Or83b), mouse TRP channel (TRPM8); expressed in transfected cells
ASSAY_PROCEDURE: Ca2+-imaging of stable HEK293T cell line TRPM8
Type: cell-based
RUN_PARAMETERS: HEK-293T; compound applied at 4 μM; read-out: Percent Inhibition TRPM8

| COMPOUND | TARGET_OF_ASSAY | inhibition at 4 µM |
| --- | --- | --- |
| COCCCN(Cc1c(-c2ccccc2)noc1N(C)C(C)C)C(=O)c1ccccc1OC [RU-0037003] | TRP channel (TRPM8) (Mus musculus) | < 25% |
| CCCCCCCC(=O)N1CCCC(C(=O)NC2CCCC[C@H]2NC(=O)c2ccccc2C)C1 (stereo partly drawn) [RU-0045756] | TRP channel (TRPM8) (Mus musculus) | < 25% |
| C=CCN(Cc1nccn1Cc1ccccc1F)C(=O)c1cccc(F)c1 [RU-0058232] | TRP channel (TRPM8) (Mus musculus) | 26 to 50% |

###

TARGET_OF_ASSAY: OR28/OR7 (Anopheles gambiae, UniProt A0A1S4GFY3+Q7QCC7)
Sequence (A0A1S4GFY3 entry or part of it): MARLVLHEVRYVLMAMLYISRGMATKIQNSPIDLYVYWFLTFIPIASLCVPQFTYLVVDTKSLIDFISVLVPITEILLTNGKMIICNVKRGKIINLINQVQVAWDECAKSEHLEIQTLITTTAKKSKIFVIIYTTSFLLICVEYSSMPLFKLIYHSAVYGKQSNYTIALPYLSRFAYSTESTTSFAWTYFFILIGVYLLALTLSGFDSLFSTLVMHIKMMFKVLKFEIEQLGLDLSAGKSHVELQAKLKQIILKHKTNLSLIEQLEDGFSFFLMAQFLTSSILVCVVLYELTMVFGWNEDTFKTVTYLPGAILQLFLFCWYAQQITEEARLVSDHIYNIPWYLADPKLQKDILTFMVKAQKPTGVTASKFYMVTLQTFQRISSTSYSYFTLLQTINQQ
Sequence (Q7QCC7 whole entry): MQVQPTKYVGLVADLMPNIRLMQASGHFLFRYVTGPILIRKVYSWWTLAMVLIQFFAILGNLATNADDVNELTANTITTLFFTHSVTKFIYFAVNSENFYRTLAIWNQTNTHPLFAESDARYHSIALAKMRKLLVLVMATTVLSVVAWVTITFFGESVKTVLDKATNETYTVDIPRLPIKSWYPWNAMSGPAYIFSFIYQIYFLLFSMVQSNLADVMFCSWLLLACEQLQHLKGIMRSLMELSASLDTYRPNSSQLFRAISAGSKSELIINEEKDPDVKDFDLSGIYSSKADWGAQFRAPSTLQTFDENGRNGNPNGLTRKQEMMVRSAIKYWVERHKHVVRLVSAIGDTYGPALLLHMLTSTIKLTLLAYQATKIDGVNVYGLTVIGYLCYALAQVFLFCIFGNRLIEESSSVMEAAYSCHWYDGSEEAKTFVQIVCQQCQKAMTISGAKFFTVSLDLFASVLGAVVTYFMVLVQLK
ASSAY_PROCEDURE: Ca2+-imaging of stable HEK293T cell line OR28/OR7
Type: cell-based
RUN_PARAMETERS: HEK-293T; compound applied at 4 μM; read-out: Percent Inhibition OR28 OR7
MEASURED_PARAMETER: inhibition at 4 µM

| MOLECULE | MEASURED_PARAMETER | RESULT_VALUE |
| --- | --- | --- |
| COc1ccc(OCC(=O)N2CCOC(Cc3ccccc3)C2)cc1 (stereo not shown) | inhibition at 4 µM | > 75% |
| COCCN(Cc1c(-c2ccccc2)noc1N(C)C1CCCCC1)C(=O)c1ccccc1OC | inhibition at 4 µM | > 75% |
| COc1ccc(N2CCN(C(=O)C3CC=CCC3C(=O)NCCCCc3ccccc3)CC2)cc1 (stereo not shown) | inhibition at 4 µM | 51 to 74% |
| CCN(CC)c1onc(-c2ccccc2)c1CN(CC1CCCO1)C(=O)c1ccc2c(c1)OCO2 (stereo not shown) | inhibition at 4 µM | > 75% |

###

TARGET_OF_ASSAY: OR10/OR7 (Anopheles gambiae, UniProt B5U0U7+Q7QCC7)
Sequence (Q7QCC7 whole entry): as the sequence (Q7QCC7 whole entry) above
Sequence (B5U0U7 entry or part of it): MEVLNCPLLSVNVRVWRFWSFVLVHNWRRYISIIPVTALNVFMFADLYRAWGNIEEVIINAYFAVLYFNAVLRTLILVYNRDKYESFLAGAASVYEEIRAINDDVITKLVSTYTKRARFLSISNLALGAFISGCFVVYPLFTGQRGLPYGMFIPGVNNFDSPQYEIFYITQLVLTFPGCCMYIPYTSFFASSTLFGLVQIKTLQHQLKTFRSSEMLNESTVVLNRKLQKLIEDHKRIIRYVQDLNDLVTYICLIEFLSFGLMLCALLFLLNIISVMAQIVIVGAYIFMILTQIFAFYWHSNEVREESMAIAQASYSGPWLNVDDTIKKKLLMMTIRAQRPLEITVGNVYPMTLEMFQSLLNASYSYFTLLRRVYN
ASSAY_PROCEDURE: Ca2+-imaging of stable HEK293T cell line OR10/OR7
Assay type: cell-based
RUN_PARAMETERS: HEK-293T; compound applied at 4 μM; read-out: Percent Inhibition OR10 OR7
The entries below come with measured inhibition at 4 µM values attached.

| COMPOUND | inhibition at 4 µM |
| --- | --- |
| COCCCN(Cc1c(-c2ccccc2)noc1N(C)C(C)C)C(=O)c1ccccc1OC | < 25% |
| CCOC(=O)C1CCCN(C(=O)c2csc(CSc3nnc(-c4cccc(OC)c4)n3-c3ccc(C)cc3)n2)C1 (stereo not drawn) | < 25% |
| Cc1cccc(NC(=O)CCC2CCN(C(=O)CCOc3ccccc3)CC2)c1 | 26 to 50% |
| O=C(c1ccco1)N(Cc1nccn1Cc1ccccc1Cl)CC1CC1 | > 75% |
| CCc1cc(N2CCCC2)nc(SCc2ccc(C(=O)N3CCOCC3)o2)n1 | > 75% |
| CC(C)CN(Cc1nccn1Cc1c(F)cccc1Cl)C(=O)c1ccc(F)cc1 | 51 to 74% |
| O=C1CN(S(=O)(=O)c2c(F)cc(F)cc2F)CC2c3cccc(F)c3CCN12 (stereo not drawn) | 26 to 50% |
| CCn1c(C)c(C(=O)CN(CC2CCCO2)C(=O)C2C[C@H]2c2ccccc2)c(C)c1C(=O)OC (stereo partly drawn) | 51 to 74% |
| CCOc1ccccc1C(=O)NNC(=O)COc1cc(C)cc(C)c1 | 26 to 50% |
| O=C(C1CCC1)N(Cc1ccco1)Cc1nccn1Cc1ccccc1Cl | 51 to 74% |
| Cc1ccccc1C(=O)N[C@@H]1CCCCC1NC(=O)C1CCN(C(=O)c2ccc(C(C)(C)C)cc2)CC1 (stereo partly drawn) | > 75% |
| CC(=O)OCC(=O)NCC1Cc2cc(Oc3ccccc3)ccc2O1 (stereo not drawn) | > 75% |
| Cc1ccc(CN(CCc2ccccc2)C(=O)CN(C(=O)NC(C)(C)C)C(C)C)o1 | > 75% |
| CC(C)CN(Cc1nccn1Cc1ccc(Cl)cc1Cl)C(=O)c1ccccc1F | 51 to 74% |
| CCN(CC)c1onc(-c2ccccc2)c1CN(CC1CCCO1)C(=O)c1ccc2c(c1)OCO2 (stereo not drawn) | 26 to 50% |
| Fc1ccccc1/C=N/Nc1nc(N2CCCCC2)nc(N2CCOCC2)n1 | 26 to 50% |
| Cc1ccccc1C(=O)N[C@@H]1CCCCC1NC(=O)C1CCN(C(=O)c2cc(C(F)(F)F)cc(C(F)(F)F)c2)CC1 (stereo partly drawn) | < 25% |
| COc1nc(NC(C)C)nc(NC(C)C)n1 | < 25% |

###

Listing of recorded inhibition at 4 µM by entry.
TARGET_OF_ASSAY: OR28/OR7 (Anopheles gambiae, UniProt A0A1S4GFY3+Q7QCC7)
ASSAY_PROCEDURE: Ca2+-imaging of stable HEK293T cell line OR28/OR7
Format: cell-based
RUN_PARAMETERS: HEK-293T; compound applied at 4 μM; read-out: Percent Inhibition OR28 OR7
MEASURED_PARAMETER: inhibition at 4 µM

| MOLECULE | RESULT_VALUE |
| --- | --- |
| Cc1ccccc1C(=O)N[C@@H]1CCCCC1NC(=O)C1CCN(C(=O)c2cc(C(F)(F)F)cc(C(F)(F)F)c2)CC1 (some centres unmarked) | 51 to 74% |
| CCOC(=O)c1c(NC(C)=O)c(-c2ccc(OC)cc2)cn1Cc1ccccc1 | 51 to 74% |
| O=C(CCC1CCN(C(=O)c2cccc(-n3cccn3)c2)CC1)Nc1ccccc1 | > 75% |
| COc1ccc(-n2c(Cc3ccccc3)nnc2SCCCC(=O)N2CCN(C(=O)c3ccc(C(F)(F)F)cc3)C(C)C2)cc1 (centres unmarked) | > 75% |
| C=CCOc1cccc(C(=O)N2CCCC(C(=O)c3ccccc3OC)C2)c1 (centres unmarked) | > 75% |
| COCCN(Cc1c(-c2ccccc2)noc1N1CCSCC1)CC(O)COCc1ccco1 (centres unmarked) | > 75% |
| CCOC(=O)C(c1ccc(OC)c(OC)c1)C1C=CC(NC(=O)c2ccc3c(c2)OCO3)C1 (centres unmarked) | > 75% |
| Cc1ccc(CN(Cc2ccc(F)cc2)C(=O)CN(C(=O)NC(C)(C)C)C2CC2)s1 | > 75% |

###

TARGET_OF_ASSAY: OR10/OR7 (Anopheles gambiae, UniProt B5U0U7+Q7QCC7)
ASSAY_PROCEDURE: Ca2+-imaging of stable HEK293T cell line OR10/OR7
Type: cell-based
RUN_PARAMETERS: ligand indole 30 μM; read-out: IC50 OR10 OR7
pIC50: −log10 of the molar value.
MEASURED_PARAMETER: pIC50

| COMPOUND | TARGET_OF_ASSAY | RESULT_VALUE |
| --- | --- | --- |
| CCN(CC)C(=O)c1cccc(C)c1 [DEET, N,N-diethyl-m-toluamide, reference compound] | OR10/OR7 (Anopheles gambiae, UniProt B5U0U7+Q7QCC7) | < 4.30 |
| C=CCN(Cc1nccn1Cc1cccc(F)c1)C(=O)c1ccccc1F | OR10/OR7 (Anopheles gambiae, UniProt B5U0U7+Q7QCC7) | 4.70 to 5.70 |
| Fc1cccc(Cl)c1Cn1ccnc1CN(CC1CCCC1)C1CC1 | OR10/OR7 (Anopheles gambiae, UniProt B5U0U7+Q7QCC7) | < 4.70 |
| O=C(C1CCCC1)N(Cc1nccn1CCc1c(F)cccc1Cl)C1CC1 | OR10/OR7 (Anopheles gambiae, UniProt B5U0U7+Q7QCC7) | 4.70 to 5.70 |
| CN(Cc1nccn1Cc1c(F)cccc1Cl)C(=O)C1CCCC1 | OR10/OR7 (Anopheles gambiae, UniProt B5U0U7+Q7QCC7) | < 4.70 |
| O=C(c1nccn1Cc1c(F)cccc1Cl)N(CC1CCCC1)C1CC1 | OR10/OR7 (Anopheles gambiae, UniProt B5U0U7+Q7QCC7) | 4.70 to 5.70 |
